Origin of values: ChEMBL document CHEMBL3120156

# assay comment: Cytotoxicity against staphylococcal enterotoxin B-stimulated human PBMC assessed as decrease in cell viability after 72 hrs by WST-1 assay
# Format: cell-based
readout label: CC50 at 72 h

query: Record request: CC50 at 72 h value, item `COc1ccc2c(O[C@@H]3C[C@H]4C(=O)N[C@]5(C(=O)NS(=O)(=O)C6CC6)C[C@H]5/C=C\CCCCN(C)C(=O)[C@@H]4C3)cc(-c3nc(C(C)C)cs3)nc2c1C`
result: ≥ 10 µM

====

# assay comment: Clearance in Sprague-Dawley rat at 2 mg/kg, iv administered as single dose with 20% Hydroxypropyl-beta-cyclodextrine
# Assay type: ADME, organism-based
# Parameters: dose 2 mg/kg, route intravenous
# conditions: in vivo
readout label: clearance
Please state the number and follow it with the unit.

query: Record request: clearance value, item `COc1ccc2c(O[C@@H]3C[C@H]4C(=O)N[C@]5(C(=O)NS(=O)(=O)C6(C)CC6)C[C@H]5/C=C\CCCCCC(=O)N4C3)cc(-c3nc(C(C)C)cs3)nc2c1C`
result: 15.7 mL/min/kg
